# TARGET: human ETB receptor (Homo sapiens, UniProt P24530)
# Construct: expressed in transfected cells; host or cells: 293T-17 cells, transient transfection
# Sequence (P24530 27-442): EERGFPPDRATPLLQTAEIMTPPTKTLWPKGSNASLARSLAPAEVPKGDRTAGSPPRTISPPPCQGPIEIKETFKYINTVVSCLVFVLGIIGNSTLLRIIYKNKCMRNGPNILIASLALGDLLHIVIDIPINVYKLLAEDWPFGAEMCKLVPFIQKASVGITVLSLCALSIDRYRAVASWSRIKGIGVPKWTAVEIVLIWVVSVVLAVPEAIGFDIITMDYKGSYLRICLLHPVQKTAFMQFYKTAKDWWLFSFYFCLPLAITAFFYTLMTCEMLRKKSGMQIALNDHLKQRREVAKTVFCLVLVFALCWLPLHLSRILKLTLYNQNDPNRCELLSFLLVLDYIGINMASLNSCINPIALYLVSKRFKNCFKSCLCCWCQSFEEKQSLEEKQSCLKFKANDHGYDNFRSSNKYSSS
# ASSAY_EXPLANATION: Screening of polypeptides for activity on human ETB receptor (IP-One Gq kit, % of positive control IRL1620)
# Type: cell-based
# COND: @10nM
Numbered stars: 1 amine (or outer) side, 2 acyl side, 3 side chain; on linkers, the order of the positions; unused ones are H or OH. Square brackets hold non-standard residues; d marks the D form. Side chains are listed from the residue outwards. Ends that are not written are not given here. * marks the point of attachment. C18 diacid = O=C(O)CCCCCCCCCCCCCCCCC(=O)*; γGlu = O=C(O)[C@H](CCC(=O)[*:2])N[*:1]; NMeI = CC[C@H](C)[C@H](NC)C(=O)O; NMeL = CN[C@@H](CC(C)C)C(=O)O; Fumaroyl = O=C(O)/C=C/C(=O)*; Suc = O=C(CCC(=O)[*:2])[*:1]; AEEA = NCCOCCOCC(=O)O
QUANTITY: hETBR agonist activity, percentage of activity relative to IRL1620 (%@10nM)
Supply the numeric figure in %@10nM, leaving out any unit text.

Query block: Would you mind telling me what hETBR agonist activity, percentage of activity relative to IRL1620 value was observed for Suc-DEEAVYFAHL(N-Me)DI(N-Me)IW (Suc-DEEAVYFAH[NMeL]; not fully specified (C-terminus)) [BX-27] ?
Result block: 1.72

Query block: Would you mind telling me what hETBR agonist activity, percentage of activity relative to IRL1620 value was observed for Suc-D cyclo(EEAK)YFAHLD(2-Abu)IW [BX-63] ?
Result block: 90.08

Query block: Would you mind telling me what hETBR agonist activity, percentage of activity relative to IRL1620 value was observed for Fum-DEEAKYFAHLDIIW (Fumaroyl-DEEAKYFAHLDIIW) [BX-105] ?
Result block: 64.66

Query block: Would you mind telling me what hETBR agonist activity, percentage of activity relative to IRL1620 value was observed for Suc-DEEAVYFAHLDI(N-Me)IW (Suc-DEEAVYFAHLDI[NMeI]W) [BX-25] ?
Result block: 19.19

Query block: Would you mind telling me what hETBR agonist activity, percentage of activity relative to IRL1620 value was observed for MeO-Fum-DEEAVYFAHK(-γE-AEEA-AEEA-ODDA)DIIW ({MeO‑Fum}-DEEAVYFAHK([γGlu-AEEA-AEEA-C18 diacid])DIIW) [BX-75] ?
Result block: 14.68

Query block: Would you mind telling me what hETBR agonist activity, percentage of activity relative to IRL1620 value was observed for Fum-DEEAVYFAHKDVIW (Fumaroyl-DEEAVYFAHKDVIW) [BX-23] ?
Result block: 26.12

Query block: Would you mind telling me what hETBR agonist activity, percentage of activity relative to IRL1620 value was observed for Suc-DEEAVYFAHL(N-Me)DIIW (Suc-DEEAVYFAH[NMeL]; not fully specified (C-terminus)) [BX-26] ?
Result block: 11.94

Query block: Would you mind telling me what hETBR agonist activity, percentage of activity relative to IRL1620 value was observed for Fum-DEEAK(-γE-AEEA-AEEA-ODDA)YFAHLDVIW (Fum-DEEAK with lipidated linker N-terminal) [BX-110] ?
Result block: 138.99

Query block: Would you mind telling me what hETBR agonist activity, percentage of activity relative to IRL1620 value was observed for Fum-DEEAVYFAHL(N-Me)DIIW (Fumaroyl-DEEAVYFAH[NMeL]; not fully specified (C-terminus)) [BX-28] ?
Result block: 8.27

Query block: Would you mind telling me what hETBR agonist activity, percentage of activity relative to IRL1620 value was observed for Fum-DEEEVYFAHKDIIW (Fumaroyl-DEEEVYFAHKDIIW) [BX-52] ?
Result block: 145.60

Query block: Would you mind telling me what hETBR agonist activity, percentage of activity relative to IRL1620 value was observed for Suc-DEEAVYFAHOrn(-AEEA-AEEA-γE - ODDA)DIIW [BX-61] ?
Result block: 13.97

Query block: Would you mind telling me what hETBR agonist activity, percentage of activity relative to IRL1620 value was observed for Fum-DEEAVYFK(-γE-AEEA-AEEA-ODDA)HLDIIW (Fumaroyl-DEEAVYFK([γGlu-AEEA-AEEA-C18 diacid])-{H2N-Leu-Asp-Ile-Ile-Trp}) [BX-68] ?
Result block: -39.42

Query block: Would you mind telling me what hETBR agonist activity, percentage of activity relative to IRL1620 value was observed for Suc-DEEAVYFAHK(-γE-AEEA-AEEA-ODDA)DVIW (Suc-DEEAVYFAHK([γGlu-AEEA-AEEA-C18 diacid])DVIW) [BX-78] ?
Result block: -14.2

Query block: Would you mind telling me what hETBR agonist activity, percentage of activity relative to IRL1620 value was observed for Fum-DEEEVYFAHK(-AEEA-AEEA-γE - ODDA)DIIW (Fumaroyl-DEEEVYFAHK([AEEA-AEEA-γGlu-C18 diacid])DIIW) [BX-60] ?
Result block: -15.72
